Where do the numbers come from? From patent US7482321B2.

assay: Pharmacokinetics after single intravenous dose in rats; conditions: Sprague Dawley, rat, plasma, iv, 10 ug/kg, Plasma Concentration, 30 min; Mean of 4 rats; single i.v. 10 μg/kg
Ends that are not written are not given here.
measurement.name: level at 0.5 h (ng/mL)
Entry rule: numbers only, all in ng/mL.

A selection of reference data follows.
HVEGTFTSDVSSYLEEQAAKEFIAWLIKGGPSSGDPPPS-NH2 [Compound 1] ... 3.1
HVEGTFTSDVSSYLEEQAAKEFIAWLIKGGPSSGDPPPS [Compound 2] ... 2.95

HVEGTFTSDVSSYLEEQAAKEFIAWLVKGRGSSGAPPPS [Compound 3] has a reported level at 0.5 h of 3.44
